Provenance of the data: ChEMBL document CHEMBL1130512

Target sequence: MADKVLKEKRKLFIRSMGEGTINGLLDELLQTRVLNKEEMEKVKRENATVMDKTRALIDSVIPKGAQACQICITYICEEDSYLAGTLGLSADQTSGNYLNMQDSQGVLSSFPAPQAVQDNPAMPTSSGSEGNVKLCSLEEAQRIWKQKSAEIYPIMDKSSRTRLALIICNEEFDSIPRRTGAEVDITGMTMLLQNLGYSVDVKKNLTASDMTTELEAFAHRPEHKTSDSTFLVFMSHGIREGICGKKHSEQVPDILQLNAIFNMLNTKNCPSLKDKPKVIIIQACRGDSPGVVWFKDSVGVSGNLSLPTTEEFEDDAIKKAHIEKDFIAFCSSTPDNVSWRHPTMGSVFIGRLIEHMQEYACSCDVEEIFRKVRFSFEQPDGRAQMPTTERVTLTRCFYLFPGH
Residues, ends and D or L forms follow the SMILES beside them. *: point of attachment. Hydrocinnamoyl = O=C(CCc1ccccc1)*; Cbz = O=C(OCc1ccccc1)*
reportedProperty: pKi
Please note pKi is a logarithmic value: minus log10 of concentration in mol/L. Answer with that number alone.

Observe how each entry below is paired with its result.
CC(C)[C@H](NC(=O)OCc1ccccc1)C(=O)N[C@@H](C)C(=O)N[C@@H](CC(=O)O)C(=O)O (Cbz-Val-Ala-Asp-OH): 7.26
CC(C)[C@H](NC(=O)OCc1ccccc1)C(=O)NCC(=O)N[C@@H](CC(=O)O)C(=O)O (Cbz-Val-Gly-Asp-OH): 5.89

// query Return pKi for the following compound: CC(=O)N[C@@H](Cc1ccc(O)cc1)C(=O)N[C@H](C(=O)N[C@@H](C)C(=O)N[C@@H](CC(=O)O)C(=O)O)C(C)C
// result 8.05

// query In one line, give reported pKi of the entry CC(C)[C@H](NC(=O)CCc1ccccc1)C(=O)N[C@@H](C)C(=O)N[C@@H](CC(=O)O)C(=O)O (Hydrocinnamoyl-Val-Ala-Asp-OH) .
// result 7.27
